Target sequence: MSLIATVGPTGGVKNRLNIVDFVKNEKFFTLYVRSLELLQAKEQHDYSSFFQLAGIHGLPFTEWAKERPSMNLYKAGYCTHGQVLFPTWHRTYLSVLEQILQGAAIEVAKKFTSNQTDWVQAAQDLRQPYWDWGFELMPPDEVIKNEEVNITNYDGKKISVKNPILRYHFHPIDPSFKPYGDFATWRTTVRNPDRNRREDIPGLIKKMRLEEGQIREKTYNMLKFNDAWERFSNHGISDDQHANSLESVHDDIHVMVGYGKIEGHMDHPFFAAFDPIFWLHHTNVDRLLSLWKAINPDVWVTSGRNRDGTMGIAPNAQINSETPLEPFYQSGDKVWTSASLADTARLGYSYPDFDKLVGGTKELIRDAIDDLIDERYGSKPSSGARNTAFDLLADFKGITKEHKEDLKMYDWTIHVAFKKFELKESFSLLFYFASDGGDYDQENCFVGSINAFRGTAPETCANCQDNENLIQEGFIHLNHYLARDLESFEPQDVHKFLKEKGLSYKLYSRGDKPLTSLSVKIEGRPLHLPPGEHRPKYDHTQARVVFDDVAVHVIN
// reported IC50 per item

molecule: O=C(/C=C/c1ccc(O)cc1)NCCCNC(=O)/C=C/c1ccc(O)cc1
IC50: 3.4 µM
//
molecule: O=C(/C=C/c1cccc(O)c1)NCCCNC(=O)/C=C/c1cccc(O)c1
IC50: 55.2 µM
//
molecule: COc1ccc(/C=C/C(=O)NCCCCNC(=O)/C=C/c2ccc(OC)c(O)c2)cc1O
IC50: 80.2 µM
//
molecule: COc1ccc(/C=C/C(=O)NCCNC(=O)/C=C/c2ccc(OC)c(O)c2)cc1O
IC50: 84.2 µM
//
molecule: COc1ccc(/C=C/C(=O)NCCCNC(=O)/C=C/c2ccc(OC)c(O)c2)cc1O
IC50: 55.3 µM
//
molecule: O=C(/C=C/c1ccc(O)cc1)NCCCCNC(=O)/C=C/c1ccc(O)cc1
IC50: 6.5 µM
//
molecule: COc1cc(/C=C/C(=O)NCCCNC(=O)/C=C/c2ccc(O)c(OC)c2)ccc1O
IC50: 98.3 µM
//
molecule: COc1cc(/C=C/C(=O)NCCCCNC(=O)/C=C/c2ccc(O)c(OC)c2)ccc1O [TERRESTRIBISAMIDE]
IC50: 108 µM
//
molecule: O=C(/C=C/c1cccc(O)c1)NCCNC(=O)/C=C/c1cccc(O)c1
IC50: 95.3 µM
